This collection of values is drawn from PubChem BioAssay (NCI).

tested on: IGROV1 ovarian; assay: NCI tumour cell line growth inhibition, 48 h
Parameter TGI: see the listing below.

{"Compound": "COc1cc(C2CC(c3ccc4c(c3)OCO4)=NN2C=O)cc(OC)c1OC (stereo not drawn)", "TGI": "> 100 µM"}
{"Compound": "NC(=O)NNc1nc2ccccc2c(=O)n1NC(=O)C(=O)Nc1ccc(Cl)cc1Cl", "TGI": "> 100 µM"}
{"Compound": "CC(=O)OCOC(=O)CN(CC(=O)OCOC(C)=O)Cc1cc2c(cc1OC(C)=O)Oc1cc(OC(C)=O)c(CN(CC(=O)OCOC(C)=O)CC(=O)OCOC(C)=O)cc1C21OC(=O)c2ccccc21", "TGI": "1.36 µM"}
{"Compound": "O=C(C1OC1c1ccc(O)cc1)C12CC3CC(CC(C3)C1)C2 (stereo not drawn)", "TGI": "> 100 µM"}
{"Compound": "O=C(NCCCCCCNC(=O)n1cc(F)c(=O)[nH]c1=O)NCCCOCCOCCOCCOCCOCCOCCOCCOCCOCCOCCOCCOCCOCCOCCOCCOCCOCCOCCOCCOCCOCCCNC(=O)C(O)C(O)C(O)C(O)CO (stereo not drawn)", "TGI": "> 100 µM"}
{"Compound": "Cc1csc(=S)n1OC(=O)NC1CCCCC1", "TGI": "> 100 µM"}
{"Compound": "COc1ccc(/C=C2\\CCCC3=C2N=C2SC(C)=NN2C3c2ccc(OC)c(OC)c2)cc1OC (stereo not drawn)", "TGI": "93.8 µM"}
{"Compound": "CCOC(=O)C1(C(=O)OCC)Nc2cccnc2N(C)N1", "TGI": "42.1 µM"}
